# Tested on: LXRa:RXRa (NR concentration 270 nM, RXRa partner concentration 90 nM)
# assay_summary: PBM binding z-score (relative to random genomic background probes); higher = stronger binding; sequences stand for … in GC…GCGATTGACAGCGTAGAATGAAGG
endpoint_name: PBM binding z-score
Keep the answer to the number alone.

Reference set, count: 5
ordered_residues	PBM binding z-score
AGAATGAGGTTATACTTAGATCAGGGAAGAAAGT	1.76
CCTAGCATGCCAGGGTCACTCAAGCATTTCGCTT	1.85
CGTCAAAGTTCAACTAAGGTAACGTGAAGCACGC	6.43
ACTCGGAGGACAATGGTCAGAGCTACGCCAGTGA	-0.512
GCTAGTTGGTCAGTCAAAGGTCACACACCGGTCG	4.41

Look up PBM binding z-score for this sequence: "TCTATCAGTTGATTAGGGCAACCGAAACAGCGGA" 0.15

Please report the recorded PBM binding z-score for "AGCCAAAGTTCATCTAGGTAACGTAAGATATGCT" . 6.25

Consider the sequence shown here: "GCTATTAGTTGAAAGGGCAACGGAATGATTCTCG" What is its recorded PBM binding z-score? 0.524

Entry under review: "TATACAGGGCCAAAGGCCAGAGTACGAATGTCGA" . Reported PBM binding z-score? 0.14

Entry under review: "ACATACAGGTGAGTGAAGGTAACTCAGCTGGACG" . Reported PBM binding z-score? 0.707

Can you share its PBM binding z-score? I mean this sequence: "TCATATAGGTAAGAGGTGAAAGTCGGTGTGGTAA" 1.71

Consider the sequence shown here: "ATCTCTAGGTAACCAACTTCAGTGAATGCCGAAC" What is its recorded PBM binding z-score? 0.07

Fill in: PBM binding z-score of "AATATAGGGTCACTAGGCCAGAGTAGGTACGAAT" is ___ 5.13

Reported PBM binding z-score, sequence "CCTCGGAGGACATCAGGAGGTCAGAGCTGCCAGA" : ____ 1.87

Given the sequence "CCTCGGAGGACAACAGAAGGTCAGAGCTGCCAGA" , what is its reported PBM binding z-score? 1.74

Can you share its PBM binding z-score? I mean this sequence: "TCATATAGGTAACGGTGAAAGTCGAACGATATGA" 0.386

###

# Tested on: RARa:RXR (NR concentration 270 nM, RXRa partner concentration 90 nM)
# assay_summary: PBM binding z-score (relative to random genomic background probes); higher = stronger binding; sequences stand for … in GC…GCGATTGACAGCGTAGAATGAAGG
# label = MET if PBM binding z-score >= 3 else NOT MET

In plain terms: is recorded PBM binding z-score at least 3 for "CCTGCTAGGTCAATGGTCAGCCAAAGCAGCTCGC" ? NOT MET

State whether the measured PBM binding z-score reaches 3, counting equality as reaching it, for "CCTTACGGGTCACAGACAGGTTATAGCATTTGGA" MET

Tell me whether PBM binding z-score is at least 3 here: "GCTGCTAGGTCAACTGATGGGCAGCTAAAGCTCG" NOT MET

Has "ACTAGTTGGTCAGCTGAGGTCGCACACAATTCGG" a recorded PBM binding z-score greater than or equal to 3? NOT MET

Please check the record "ACTATTAGTTGAGACGAGAGCAACCGATAGGTTG" and state if its PBM binding z-score is at or above 3. NOT MET

Is reported PBM binding z-score greater than or equal to 3 here: "CCTACTGGGCCATTCAGAGCTCATTGATCATATG" NOT MET

Assess whether reported PBM binding z-score for "ACTTACGGGTCGACGAGGTTATAGCACGCGTATA" sits at 3 or higher. NOT MET

PBM binding z-score >= 3 for "TCTGCTAGGCCAGTTGGTCAGCTAACGAGCTGCC" ? NOT MET

Could you please find out whether "GCTAGCAGGCCATTTGGGTCCCTCAATGACGGGC" has PBM binding z-score that meets 3 or exceeds it? NOT MET

Could you verify whether the entry "ACTTACGGGTCAACGAGGTTATAGCTCGCGTATA" shows PBM binding z-score of no less than 3? MET

Does "GATACAGCGTCAGCTAGAGGCCAGAGTATGGAAA" have a reported PBM binding z-score of at least 3? NOT MET

Item "GCTTGTAGATCAAGGTTAAGACAGACTAAGCTAA" with PBM binding z-score of 3 or above? NOT MET

Is PBM binding z-score at least 3? Consider "ATCTCTAGGTAAAGATAGTTGAGTGAATGCAAAT" NOT MET

Test whether the sequence "GCTGGTTGGTCAGTAAAAGGTCACACACCGGTCG" records PBM binding z-score of 3 or higher. MET

Item "CTCGAAAGGTCGTGCTCAGGTGAGGATACCAAAC" with PBM binding z-score of 3 or above? MET

###

# System: LXRb homodimer (NR concentration 270 nM)
# assay_summary: PBM binding z-score (relative to random genomic background probes); higher = stronger binding; sequences stand for … in GC…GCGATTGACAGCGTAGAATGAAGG
endpoint_name: PBM binding z-score
API note: the answer field is a bare number with no unit suffix.

Below, 5 sequences whose answers are already recorded.
ordered_residues	assayed_system	reading
TCGAGTAGGTTACCAATGGCGCATTCAGCTTTCT	LXRb homodimer (NR concentration 270 nM)	-0.736
ATCTCTAGGGAAAGTTCAGTGAAAGATCGATAGA	LXRb homodimer (NR concentration 270 nM)	0.681
GGAACGAGGGCATTCGAGTAGATAGCATGGCGAT	LXRb homodimer (NR concentration 270 nM)	-0.937
GCAGACAGGTGAAACGCTGGTAACTCAGGGTGGC	LXRb homodimer (NR concentration 270 nM)	-1.44
ATCTCTAGGTAAGACTCAGTTCATTGAAGAACGC	LXRb homodimer (NR concentration 270 nM)	1.11

Under LXRb homodimer (NR concentration 270 nM): PBM binding z-score value of "CCTTACGGGTCACGAGGTTACAGCACGACGAGCG" ? 0.337

Field: PBM binding z-score (LXRb homodimer (NR concentration 270 nM)). Entry: "CCTACTGGGCCATCAGGTCACTGATATCAACGTT" -0.523

Which measured PBM binding z-score belongs to "GCGACTGGGGCATCAGCTGGTTACCATAACTTAA" , tested on LXRb homodimer (NR concentration 270 nM)? -0.935

Lab note: need PBM binding z-score for "GGAACGAGGGCATAGTTGATAGCATCTGTCGACG" on LXRb homodimer (NR concentration 270 nM), anyone have it? -0.441

Enter reported PBM binding z-score observed with LXRb homodimer (NR concentration 270 nM) for "CCTAGTTGGTGAGGAGGTCACACACCGGATATGA" 0.489

Query the reported PBM binding z-score for LXRb homodimer (NR concentration 270 nM); item: "GCAGACAGGTGAAGCGCAGGTAACTCAGGGTGGC" -1.29

###

# Tested on: RARb:RXRa (NR concentration 270 nM, RXRa partner concentration 90 nM)
# assay_summary: PBM binding z-score (relative to random genomic background probes); higher = stronger binding; sequences stand for … in GC…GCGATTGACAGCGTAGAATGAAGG
If the reported PBM binding z-score equals or exceeds 2, assign Met. If not, assign Not met.

These recorded examples may help you get a feel for the data.
ordered_residues	assigned_category
ACTAGCAGGCCAAGGGACACTCAAGATTAGTCCG	Not met
GCTAGTTCGTCAGTAAAAGGTCACACACCGGTCG	Met
CCTAATAGTTGACCATAAGGGCAACCGAAGCTCG	Not met
AGTCAAAGTTCATCTAGGTGACGTAAGATATGCT	Met

Determine whether this sequence has PBM binding z-score no lower than 2: "CCTTACGGGTCAAGGGTATAGCACGGGTGGTACG" Met

I'd appreciate it if you could say whether "TGAGTGAGGTTATAAGATCAGGGAACGTTGCAAA" has PBM binding z-score at least equal to 2. Not met

###

# Test system: VDR homodimer (NR concentration 270 nM)
# assay_summary: PBM binding z-score (relative to random genomic background probes); higher = stronger binding; sequences stand for … in GC…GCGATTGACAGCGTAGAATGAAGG
endpoint_name: PBM binding z-score
The reply should be a number, written without any unit.

ordered_residues	assayed_system	reading
TATACAGGGTCAGAGGCCAGAGTACGAATGTCGA	VDR homodimer (NR concentration 270 nM)	2.2
TCGTGTAGATCAAGCAGGTTAAGAAAGCCTGAGT	VDR homodimer (NR concentration 270 nM)	-0.0255
ACTATTAGTTGACTTAAGGCAACCGATACGACGC	VDR homodimer (NR concentration 270 nM)	0.124
ATCTCCAGGTAAAGATAGTTCAGTGAATGCAAAT	VDR homodimer (NR concentration 270 nM)	0.711

Entry "CCTTACGGGTCAAGAGGTTATAGCACGACGAGCG" has what PBM binding z-score? 1.17

I am curious: what PBM binding z-score value has been reported for "TCGAGTAGGTTAGGGGCATCCAGAATGGCGTCGA" ? 0.462

Item under review: "TAGCCTAGGTCTTGGGCCAGTATACCACGCGAAC" . Reported PBM binding z-score? -0.506

Look up PBM binding z-score: "AGAATGAGGTTAAGATCAGGAAAACAGAATACAT" 0.435

Field request: PBM binding z-score | item: "TCGCCTAGGTCAGATCGGGCCAGTATACGCTATA" -0.139

Please look up its PBM binding z-score: "ATCGAAAGGTCGACGAAGTGAGTATACACCGTTT" 0.3

PBM binding z-score lookup needed for "CCTTACGGGTGAAGGTTATAGCACGGGTGGTACG" , thanks. -0.283

Look at this sequence and give its reported PBM binding z-score. "ATATGTAGGTTATCGGATCATTCAGTTTGCGCAT" 0.764

Report PBM binding z-score for "ATACCAAGGTGATCGTGAGGTCGATGATACTAAC" please. 1.21
